Details: in isobutanol, 343.15 K
READOUT KIND: solubility (mole fraction)

Exam item: // lookup solubility (mole fraction) for NC(N)=O
Marked response: 0.0529

---

Conditions: in isopentanol, 303.15 K
READOUT KIND: solubility (mole fraction)

Exam item: // lookup solubility (mole fraction) for NC(N)=O
Marked response: 0.0162

---

Conditions: in methanol, 333.15 K
READOUT KIND: solubility (mole fraction)
Response field accepts a number only; no unit should be typed.

Exam item: // lookup solubility (mole fraction) for NC(N)=O
Marked response: 0.225

---

Details: in n-pentanol, 333.15 K
READOUT KIND: solubility (mole fraction)

Exam item: // lookup solubility (mole fraction) for NC(N)=O
Marked response: 0.0354

---

Conditions: in n-pentanol, 293.15 K
READOUT KIND: solubility (mole fraction)
Response field accepts a number only; no unit should be typed.

Exam item: // lookup solubility (mole fraction) for NC(N)=O
Marked response: 0.0137

---

Conditions: in ethanol, 333.15 K
READOUT KIND: solubility (mole fraction)
Response field accepts a number only; no unit should be typed.

Exam item: // lookup solubility (mole fraction) for NC(N)=O
Marked response: 0.127

---

Details: in isopentanol, 343.15 K
READOUT KIND: solubility (mole fraction)

Exam item: // lookup solubility (mole fraction) for NC(N)=O
Marked response: 0.0451

---

Details: in isopropanol, 303.15 K
READOUT KIND: solubility (mole fraction)
Response field accepts a number only; no unit should be typed.

Exam item: // lookup solubility (mole fraction) for NC(N)=O
Marked response: 0.0306

---

Settings: in methanol, 318.15 K
READOUT KIND: solubility (mole fraction)
Response field accepts a number only; no unit should be typed.

Exam item: // lookup solubility (mole fraction) for NC(N)=O
Marked response: 0.165

---

Conditions: in methanol, 293.15 K
READOUT KIND: solubility (mole fraction)

Exam item: // lookup solubility (mole fraction) for NC(N)=O
Marked response: 0.0845

---

Conditions: in isopentanol, 333.15 K
READOUT KIND: solubility (mole fraction)
Response field accepts a number only; no unit should be typed.

Exam item: // lookup solubility (mole fraction) for NC(N)=O
Marked response: 0.0368

---

Conditions: in ethanol, 318.15 K
READOUT KIND: solubility (mole fraction)
Response field accepts a number only; no unit should be typed.

Exam item: // lookup solubility (mole fraction) for NC(N)=O
Marked response: 0.0874

---

Conditions: in water, 333.15 K
READOUT KIND: solubility (mole fraction)

Exam item: // lookup solubility (mole fraction) for NC(N)=O
Marked response: 0.41

---

Conditions: in isopentanol, 293.15 K
READOUT KIND: solubility (mole fraction)
Response field accepts a number only; no unit should be typed.

Exam item: // lookup solubility (mole fraction) for NC(N)=O
Marked response: 0.0146

---

Settings: in n-butanol, 303.15 K
READOUT KIND: solubility (mole fraction)
Response field accepts a number only; no unit should be typed.

Exam item: // lookup solubility (mole fraction) for NC(N)=O
Marked response: 0.0209

---

Conditions: in n-pentanol, 343.15 K
READOUT KIND: solubility (mole fraction)

Exam item: // lookup solubility (mole fraction) for NC(N)=O
Marked response: 0.0424

---

Settings: in ethanol, 343.15 K
READOUT KIND: solubility (mole fraction)
Response field accepts a number only; no unit should be typed.

Exam item: // lookup solubility (mole fraction) for NC(N)=O
Marked response: 0.155

---

Conditions: in isobutanol, 318.15 K
READOUT KIND: solubility (mole fraction)
Response field accepts a number only; no unit should be typed.

Exam item: // lookup solubility (mole fraction) for NC(N)=O
Marked response: 0.0302

---

Conditions: in isobutanol, 303.15 K
READOUT KIND: solubility (mole fraction)
Response field accepts a number only; no unit should be typed.

Exam item: // lookup solubility (mole fraction) for NC(N)=O
Marked response: 0.0242

---

Settings: in isopropanol, 318.15 K
READOUT KIND: solubility (mole fraction)
Response field accepts a number only; no unit should be typed.

Exam item: // lookup solubility (mole fraction) for NC(N)=O
Marked response: 0.0425

---

Conditions: in ethanol, 293.15 K
READOUT KIND: solubility (mole fraction)

Exam item: // lookup solubility (mole fraction) for NC(N)=O
Marked response: 0.0395

---

Details: in water, 318.15 K
READOUT KIND: solubility (mole fraction)

Exam item: // lookup solubility (mole fraction) for NC(N)=O
Marked response: 0.36

---

Settings: in methanol, 343.15 K
READOUT KIND: solubility (mole fraction)
Response field accepts a number only; no unit should be typed.

Exam item: // lookup solubility (mole fraction) for NC(N)=O
Marked response: 0.266

---

Settings: in isobutanol, 293.15 K
READOUT KIND: solubility (mole fraction)
Response field accepts a number only; no unit should be typed.

Exam item: // lookup solubility (mole fraction) for NC(N)=O
Marked response: 0.017

---

Details: in n-propanol, 333.15 K
READOUT KIND: solubility (mole fraction)
Response field accepts a number only; no unit should be typed.

Exam item: // lookup solubility (mole fraction) for NC(N)=O
Marked response: 0.0722

---

Conditions: in water, 293.15 K
READOUT KIND: solubility (mole fraction)
Response field accepts a number only; no unit should be typed.

Exam item: // lookup solubility (mole fraction) for NC(N)=O
Marked response: 0.252

---

Settings: in water, 343.15 K
READOUT KIND: solubility (mole fraction)

Exam item: // lookup solubility (mole fraction) for NC(N)=O
Marked response: 0.465

---

Conditions: in n-butanol, 318.15 K
READOUT KIND: solubility (mole fraction)
Response field accepts a number only; no unit should be typed.

Exam item: // lookup solubility (mole fraction) for NC(N)=O
Marked response: 0.0292

---

Settings: in water, 303.15 K
READOUT KIND: solubility (mole fraction)
Response field accepts a number only; no unit should be typed.

Exam item: // lookup solubility (mole fraction) for NC(N)=O
Marked response: 0.294

---

Conditions: in n-propanol, 303.15 K
READOUT KIND: solubility (mole fraction)
Response field accepts a number only; no unit should be typed.

Exam item: // lookup solubility (mole fraction) for NC(N)=O
Marked response: 0.0402
